TESTED ON: Stimulator of interferon genes protein (Homo sapiens)
RUN DESCRIPTION: Agonist activity at wild type STING (unknown origin) expressed in HEK293T cells preincubated for 30 mins followed by washout and measured after 6.5 hrs by Bright-glo luciferase assay
Type: cell-based
pEC50: −log10 of the molar value.
MEASURED QUANTITY: pEC50

Find the recorded pEC50 belonging to CC(C)OC(=O)OCOP1(=O)/C=C/[C@H]2O[C@@H](n3cnc4c(N)ncnc43)[C@H](F)[C@@H]2OP(=O)(OCOC(=O)OC(C)C)OC[C@H]2O[C@@H](n3cnc4c(N)ncnc43)[C@H](F)[C@@H]2O1 (stereo in doubt; 12B) and report it. 5.58

Find the recorded pEC50 belonging to CC1(C(=O)OCOP2(=O)/C=C/[C@H]3O[C@@H](n4cnc5c(N)ncnc54)[C@H](F)[C@@H]3OP(=O)(OCOC(=O)C3(C)CCCCC3)OC[C@H]3O[C@@H](n4cnc5c(N)ncnc54)[C@H](F)[C@@H]3O2)CCCCC1 (stereo in doubt; 14C) and report it. 7.52

Find the recorded pEC50 belonging to CCC(C)(C)C(=O)OCOP1(=O)/C=C/[C@H]2O[C@@H](n3cnc4c(N)ncnc43)[C@H](F)[C@@H]2OP(=O)(OCOC(=O)C(C)(C)CC)OC[C@H]2O[C@@H](n3cnc4c(N)ncnc43)[C@H](F)[C@@H]2O1 (stereo in doubt; 13B) and report it. 7.46

Find the recorded pEC50 belonging to CCCCCCCC(=O)OCOP1(=O)/C=C/[C@H]2O[C@@H](n3cnc4c(N)ncnc43)[C@H](F)[C@@H]2OP(=O)(OCOC(=O)CCCCCCC)OC[C@H]2O[C@@H](n3cnc4c(N)ncnc43)[C@H](F)[C@@H]2O1 (stereo in doubt; 15C) and report it. 8.30

Find the recorded pEC50 belonging to CCCCCCCC(=O)OCOP1(=O)/C=C/[C@H]2O[C@@H](n3cnc4c(N)ncnc43)[C@H](F)[C@@H]2OP(=O)(OCOC(=O)CCCCCCC)OC[C@H]2O[C@@H](n3cnc4c(N)ncnc43)[C@H](F)[C@@H]2O1 (stereo in doubt; 15A) and report it. 6.46

P = CC(C)(C)C(=O)OCOP1(=O)/C=C/[C@H]2O[C@@H](n3cnc4c(N)ncnc43)[C@H](F)[C@@H]2OP(=O)(OCOC(=O)C(C)(C)C)OC[C@H]2O[C@@H](n3cnc4c(N)ncnc43)[C@H](F)[C@@H]2O1 (stereo in doubt; 11A)
Q = CCC(C)(C)C(=O)OCOP1(=O)/C=C/[C@H]2O[C@@H](n3cnc4c(N)ncnc43)[C@H](F)[C@@H]2OP(=O)(OCOC(=O)C(C)(C)CC)OC[C@H]2O[C@@H](n3cnc4c(N)ncnc43)[C@H](F)[C@@H]2O1 (stereo in doubt; 13C)
R = CC(C)OC(=O)OCOP1(=O)/C=C/[C@H]2O[C@@H](n3cnc4c(N)ncnc43)[C@H](F)[C@@H]2OP(=O)(OCOC(=O)OC(C)C)OC[C@H]2O[C@@H](n3cnc4c(N)ncnc43)[C@H](F)[C@@H]2O1 (stereo in doubt; 12A)
Sort the compounds on pEC50; start with the lowest figure. # the answer lists labels in the order requested R, P, Q
(R: 5.10, P: 6.89, Q: 7.46)

A = CCCCCCCC(=O)OCOP1(=O)/C=C/[C@H]2O[C@@H](n3cnc4c(N)ncnc43)[C@H](F)[C@@H]2OP(=O)(OCOC(=O)CCCCCCC)OC[C@H]2O[C@@H](n3cnc4c(N)ncnc43)[C@H](F)[C@@H]2O1 (stereo in doubt; 15B)
B = CC(C)(C)C(=O)OCOP1(=O)/C=C/[C@H]2O[C@@H](n3cnc4c(N)ncnc43)[C@H](F)[C@@H]2OP(=O)(OCOC(=O)C(C)(C)C)OC[C@H]2O[C@@H](n3cnc4c(N)ncnc43)[C@H](F)[C@@H]2O1 (stereo in doubt; 11C)
Sort A and B by pEC50 descending and give the first. Return value: the label identifying the chosen record. A

----------
TESTED ON: Stimulator of interferon genes protein (Homo sapiens, UniProt Q86WV6, G230A/R293Q)
Sequence (Q86WV6 whole entry G230A/R293Q): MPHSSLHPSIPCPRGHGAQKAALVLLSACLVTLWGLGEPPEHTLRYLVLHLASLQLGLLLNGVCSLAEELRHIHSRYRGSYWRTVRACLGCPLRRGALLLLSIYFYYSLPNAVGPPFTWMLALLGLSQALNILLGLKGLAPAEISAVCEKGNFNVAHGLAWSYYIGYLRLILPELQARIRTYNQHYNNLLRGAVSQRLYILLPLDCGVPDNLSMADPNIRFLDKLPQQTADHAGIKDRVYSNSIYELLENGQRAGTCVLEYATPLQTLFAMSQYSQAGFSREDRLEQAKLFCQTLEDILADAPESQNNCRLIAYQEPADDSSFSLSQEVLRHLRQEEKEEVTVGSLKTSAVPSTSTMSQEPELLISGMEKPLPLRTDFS
RUN DESCRIPTION: Agonist activity at STING G230A/R293Q mutant (unknown origin) expressed in digitonin -permeabilized HEK293T cells preincubated for 30 mins followed by washout and measured after 5 hrs by Bright-glo luciferase assay
pEC50: −log10 of the molar value.
MEASURED QUANTITY: pEC50

Here are 6 compounds together with their reported answers.
Reported pEC50 for Stimulator of interferon genes protein (Homo sapiens, UniProt Q86WV6, G230A/R293Q), given Nc1nc2c(ncn2[C@H]2C[C@@H]3OP(=O)(O)OC[C@H]4O[C@@H](n5cnc6c(N)ncnc65)C[C@@H]4OP(=O)(O)/C=C/[C@H]3O2)c(=O)[nH]1 ? 6.68

Reported pEC50 for Stimulator of interferon genes protein (Homo sapiens, UniProt Q86WV6, G230A/R293Q), given Nc1nc2c(ncn2[C@@H]2O[C@@H]3COP(=O)(O)O[C@H]4C[C@H](n5cnc6c(N)ncnc65)O[C@@H]4/C=C/P(=O)(O)O[C@H]3[C@H]2F)c(=O)[nH]1 ? 6.54

Reported pEC50 for Stimulator of interferon genes protein (Homo sapiens, UniProt Q86WV6, G230A/R293Q), given Nc1nc2c(ncn2[C@@H]2O[C@@H]3/C=C/P(=O)(O)O[C@H]4[C@@H](F)[C@H](n5cnc6c(=O)[nH]c(N)nc65)O[C@@H]4COP(=O)(O)O[C@H]3[C@H]2F)c(=O)[nH]1 ? 6.02

Reported pEC50 for Stimulator of interferon genes protein (Homo sapiens, UniProt Q86WV6, G230A/R293Q), given Nc1ncnc2c1ncn2[C@@H]1O[C@@H]2/C=C\P(=O)(O)O[C@H]3[C@@H](F)[C@H](n4cnc5c(N)ncnc54)O[C@@H]3COP(=O)(O)O[C@H]2[C@H]1F ? 7.00

Reported pEC50 for Stimulator of interferon genes protein (Homo sapiens, UniProt Q86WV6, G230A/R293Q), given Nc1ncnc2c1ncn2[C@@H]1O[C@@H]2COP(=O)(O)O[C@H]3C[C@H](n4cnc5c(N)ncnc54)O[C@@H]3/C=C/P(=O)(O)O[C@H]2[C@H]1F ? 6.40

Reported pEC50 for Stimulator of interferon genes protein (Homo sapiens, UniProt Q86WV6, G230A/R293Q), given Nc1ncnc2c1ncn2[C@@H]1O[C@@H]2/C=C/P(=O)(O)O[C@H]3C[C@H](n4cnc5c(N)ncnc54)O[C@@H]3COP(=O)(O)O[C@H]2[C@H]1F ? 6.41

1 = Nc1nc2c(ncn2[C@H]2C[C@@H]3OP(=O)(O)/C=C/[C@H]4O[C@@H](n5cnc6c(N)ncnc65)[C@H](F)[C@@H]4OP(=O)(O)OC[C@H]3O2)c(=O)[nH]1
2 = Nc1nc2c(ncn2[C@H]2C[C@@H]3OP(=O)(O)/C=C/[C@H]4O[C@@H](n5cnc6c(N)ncnc65)C[C@@H]4OP(=O)(O)OC[C@H]3O2)c(=O)[nH]1
3 = Nc1nc2c(ncn2[C@@H]2O[C@@H]3/C=C/P(=O)(O)O[C@H]4[C@@H](F)[C@H](n5cnc6c(N)ncnc65)O[C@@H]4COP(=O)(O)O[C@H]3[C@H]2F)c(=O)[nH]1
Sort the compounds on pEC50; start with the lowest figure. # the answer lists labels in the order requested 2, 1, 3
(2: 6.41, 1: 6.89, 3: 7.10)

----------
TESTED ON: Stimulator of interferon genes protein (Homo sapiens, UniProt Q86WV6)
Sequence (Q86WV6 whole entry): as the sequence (Q86WV6 whole entry G230A/R293Q) above, with A230G, Q293R counted along it
RUN DESCRIPTION: Agonist activity at wild type STING (unknown origin) expressed in HEK293T cells preincubated for 30 mins followed by washout and measured after 6.5 hrs by Bright-glo luciferase assay
Type: cell-based
pEC50: −log10 of the molar value.
MEASURED QUANTITY: pEC50

A = CCC(C)(C)C(=O)OCOP1(=O)/C=C/[C@H]2O[C@@H](n3cnc4c(N)ncnc43)[C@H](F)[C@@H]2OP(=O)(OCOC(=O)C(C)(C)CC)OC[C@H]2O[C@@H](n3cnc4c(N)ncnc43)[C@H](F)[C@@H]2O1 (stereo in doubt; 13A)
B = CC(C)(C)C(=O)OCOP1(=O)/C=C/[C@H]2O[C@@H](n3cnc4c(N)ncnc43)[C@H](F)[C@@H]2OP(=O)(OCOC(=O)C(C)(C)C)OC[C@H]2O[C@@H](n3cnc4c(N)ncnc43)[C@H](F)[C@@H]2O1 (stereo in doubt; 11B)
Sort A and B by pEC50 descending and give the first. Return value: the label identifying the chosen record. B
(B: 7.52, A: 6.35)

----------
TESTED ON: Stimulator of interferon genes protein (Homo sapiens, UniProt Q86WV6, G230A/R293Q/R71H)
Sequence (Q86WV6 whole entry R71H/G230A/R293Q): as the sequence (Q86WV6 whole entry G230A/R293Q) above, with R71H counted along it
RUN DESCRIPTION: Agonist activity at STING R71H/G230A/R293Q mutant (unknown origin) expressed in digitonin -permeabilized HEK293T cells preincubated for 30 mins followed by washout and measured after 5 hrs by Bright-glo luciferase assay
MEASURED QUANTITY: EC50 (nM)

Here are 6 compounds together with their reported answers.
Find the recorded EC50 belonging to Nc1ncnc2c1ncn2[C@@H]1O[C@@H]2COP(=O)(O)O[C@H]3C[C@H](n4cnc5c(N)ncnc54)O[C@@H]3/C=C/P(=O)(O)O[C@H]2[C@H]1F and report it. 280

Find the recorded EC50 belonging to Nc1nc2c(ncn2[C@@H]2O[C@@H]3COP(=O)(O)O[C@H]4C[C@H](n5cnc6c(N)ncnc65)O[C@@H]4/C=C/P(=O)(O)O[C@H]3[C@H]2F)c(=O)[nH]1 and report it. 350

Find the recorded EC50 belonging to Nc1nc2c(ncn2[C@H]2C[C@@H]3OP(=O)(O)OC[C@H]4O[C@@H](n5cnc6c(N)ncnc65)C[C@@H]4OP(=O)(O)/C=C/[C@H]3O2)c(=O)[nH]1 and report it. 440

Find the recorded EC50 belonging to Nc1nc2c(ncn2[C@@H]2O[C@@H]3/C=C/P(=O)(O)O[C@H]4[C@@H](F)[C@H](n5cnc6c(N)ncnc65)O[C@@H]4COP(=O)(O)O[C@H]3[C@H]2F)c(=O)[nH]1 and report it. 60

Find the recorded EC50 belonging to Nc1ncnc2c1ncn2[C@@H]1O[C@@H]2/C=C/P(=O)(O)O[C@H]3C[C@H](n4cnc5c(N)ncnc54)O[C@@H]3COP(=O)(O)O[C@H]2[C@H]1F and report it. 270

Find the recorded EC50 belonging to Nc1nc2c(ncn2[C@H]2C[C@@H]3OP(=O)(O)/C=C/[C@H]4O[C@@H](n5cnc6c(N)ncnc65)C[C@@H]4OP(=O)(O)OC[C@H]3O2)c(=O)[nH]1 and report it. 240

A = Nc1nc2c(ncn2[C@H]2C[C@@H]3OP(=O)(O)/C=C/[C@H]4O[C@@H](n5cnc6c(N)ncnc65)[C@H](F)[C@@H]4OP(=O)(O)OC[C@H]3O2)c(=O)[nH]1
B = Nc1nc2c(ncn2[C@@H]2O[C@@H]3/C=C/P(=O)(O)O[C@H]4[C@@H](F)[C@H](n5cnc6c(=O)[nH]c(N)nc65)O[C@@H]4COP(=O)(O)O[C@H]3[C@H]2F)c(=O)[nH]1
Sort A and B by EC50 descending and give the first. Return value: the label identifying the chosen record. B
